# Target entity: Retinal rod rhodopsin-sensitive cGMP 3',5'-cyclic phosphodiesterase subunit delta (Homo sapiens, UniProt O43924)
# Sequence (O43924 whole entry): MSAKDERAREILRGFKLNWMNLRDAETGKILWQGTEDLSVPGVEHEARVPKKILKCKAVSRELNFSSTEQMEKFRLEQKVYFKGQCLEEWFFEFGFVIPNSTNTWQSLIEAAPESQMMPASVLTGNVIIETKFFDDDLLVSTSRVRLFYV
# Procedure details: Binding affinity to His6-tagged PDE-delta (unknown origin) measured every 3 mins by fluorescence polarization assay
pKd: −log10 of the molar value.
Below, each entry is listed alongside its reported pKd.

Illustrative cases are given below, each with its answer.
CC(C)c1nc(N(C)S(C)(=O)=O)nc(-c2ccc(F)cc2)c1/C=C/[C@@H](O)C[C@@H](O)CC(=O)O [ROSUVASTATIN] : 5.90
C=CC(=O)N1CCC(c2nc3ccccc3n2Cc2ccccc2)CC1 : < 6.00

Please turn your attention to the following entry.
Qu. Data request, read-out pKd, for CC(C)(C)OC(=O)N1CCC(C(COc2ccc(-c3nc4ccccc4n3Cc3ccccc3)cc2)n2c(-c3ccccc3)nc3ccccc32)CC1 (stereo not drawn)
Ans. < 5.70
